Tested on: EKVX NSCLC
Assay: NCI-60 one-dose screen, 48 h (100 = growth as untreated, 0 = no growth, -100 = all killed)
Conditions: 10 µM unless noted
The panel holds about 83,000 compounds, 20% with a hit somewhere; the sample as a whole holds those more often.
Listed next: entries and their corresponding growth.
endpoint_label: growth (%)

O=C1CCCN1C1CCN2CCCc3cccc1c32 (centres undefined)	102
O=C(Cc1ccc([N+](=O)[O-])cc1)Oc1ccccc1	128
O=c1c2cc(Br)cc(Br)c2nc(-c2ccc(Cl)cc2)n1/N=C/c1cccc(F)c1	59.2
CCCCOc1nc2ccccc2cc1/C=C/c1cc(/C=C/c2cc3ccccc3nc2OCCCC)n(-c2ccccc2)n1	105
Cc1cc(-c2ccc(N=Nc3c(S(=O)(=O)O)cc4cc(S(=O)(=O)O)cc(O)c4c3O)c(C)c2)ccc1N=Nc1c(S(=O)(=O)O)cc2cc(S(=O)(=O)O)cc(O)c2c1O	79.6
O=C(/C=C/c1cn(-c2ccccc2)nc1-c1ccccc1)OCc1cn(-c2cccc([N+](=O)[O-])c2)nn1	85.9
CC(SC(C)C(=O)N/N=C/c1cccc(Cl)c1)C(=O)N/N=C\c1cccc(Cl)c1 (centres undefined)	94.9
CC(C)(C)OC(=O)N1CCCN(CCNc2nccc(-c3c(-c4cccc(O)c4)nc4sccn34)n2)S1(=O)=O	112
CCOC(=O)Nc1ccc2nc(N3CCCCCC3)sc2c1	59.9

----------
Test system: NCI-H522 lung
Test: NCI-60 one-dose screen, 48 h
Details: 10 µM unless noted
The panel holds about 83,000 compounds, 20% with a hit somewhere; the sample as a whole holds those more often. Activity calls are given as the source filed them. How the source made its calls: active means growth percent below 10; inactive means the rest.
Labels: yes (1) for active, no (0) for inactive

CC(CN1CCN(CC(C)Nc2ccnc3cc(Cl)ccc23)CC1)Nc1ccnc2cc(Cl)ccc12 (centres undefined)	yes (1)
C=C1C(=O)O[C@H]2[C@H]1CC/C(COC(=O)NCc1ccc(Cn3c(=O)sn(CCCl)c3=O)cc1)=C\CC[C@@]1(C)O[C@@H]21	yes (1)
CC1CCN(CCCCCOc2ccc3oc4ccc(Cl)cc4c(=O)c3c2)CC1	no (0)
S=C(Nc1ccc(Cl)cc1)Nc1ccc(Cl)cc1 (tested in a mixture with another compound)	yes (1)

----------
Test system: UO-31 renal
Test: NCI-60 one-dose screen, 48 h (100 = growth as untreated, 0 = no growth, -100 = all killed)
Details: 10 µM unless noted
Compounds without any hit were thinned out: in the full panel of roughly 83,000, 20% have a hit. Active and inactive are the calls of the source. The calls were made as follows: active = growth percent below 10; inactive = the rest.
Listed next: entries and their corresponding growth.
endpoint_label: growth

CCCCCCCCCCCC1=NC(C)(C)CN1C(C)C	38% (inactive)
NC(CCC(=O)NC(CS)C(=O)NCC(=O)O)C(=O)O (stereo not given)	85.9% (inactive)
Cc1cccc(/C=N/n2c(-c3ccc(Cl)cc3)nc3c(Br)cc(Br)cc3c2=O)c1	41.8% (inactive)
CCN1C(=O)/C(=C/N2N=C(c3ccc(Cl)cc3)CC2c2ccc(OC)cc2)SC1=S (stereo not given)	71.1% (inactive)
Cc1c(C(=O)CCl)c(=O)n(-c2ccccc2)n1C	64.2% (inactive)
COc1ccc(-c2cc(C(=O)Nc3ccc(Br)cc3)nc3[nH]c(=O)sc23)cc1	28.6% (inactive)
C=CCOC(=O)C1=C(C)NC2=C(C(=O)CC(C)(C)C2)C1c1ccc(OC)cc1 (stereo not given)	85.2% (inactive)
Cc1nn(-c2ccccc2)c2nc3c(nc12)C1=NCCN1C(c1ccc(Cl)cc1)N3 (stereo not given)	59.2% (inactive)
COc1cc(C2CC(c3ccc(Cl)cc3)=NN2C(C)=O)ccc1Oc1nc2c(c(=O)n(C)c(=O)n2C)n1C (stereo not given)	76.3% (inactive)
NC(=O)c1ccc[n+](Cc2ccccc2)c1	93.8% (inactive)
